# Protocol summary: Cytotoxicity in uninfected PHA-P PBMC by MTT assay
# Format: cell-based, human
# Measurement context: human; uninfected PBMC, MTT, day 7, mean from 3 blood donors; read-out: CC50, cytotoxic concentration of drug required to reduce cell growth by 50 %
Could you please report measured CC50 at 7 days for the items listed next?

compound="Nc1ncnc2c1ncn2[C@@H]1C=C(F)[C@H](OCP(=O)(O)O)C1 [(−)‐1]" endpoint_value="≥ 10 µM"

Now for a further compound.
Data point: Nc1ncnc2c1ncn2[C@H]1C=C(F)[C@@H](OCP(=O)(O)O)C1 [(+)‐1] ; CC50 at 7 days = ≥ 10 µM

---

# Protocol summary: Cytotoxicity in uninfected PHA-P PBMC by MTT assay
# Format: cell-based, human
# Measurement context: human
Recorded endpoint: CC50 at 7 days

compound="CC(C)(C)C(=O)OCOP(=O)(CO[C@H]1C[C@@H](n2cnc3c(N)ncnc32)C=C1F)OCOC(=O)C(C)(C)C [(+)‐9]" endpoint_value="≥ 10 µM"

Now take the following compound into account.
Input CC(C)(C)C(=O)OCOP(=O)(CO[C@@H]1C[C@H](n2cnc3c(N)ncnc32)C=C1F)OCOC(=O)C(C)(C)C [(−)‐9] . Output CC50 at 7 days: 5.2 µM

---

# Tested on: HIV‐1‐56252‐1
# Protocol summary: Anti-HIV-1 activity in T CD4+ H9 cells, resistant strain 56252-1
# Assay type: cell-based
# Measurement context: Human immunodeficiency virus 1; strain 56252‐1, T CD4+ H9 cells, mean from three experiments
pEC50: −log10 of the molar value.
Threshold check on pEC50: at or above 6 gives yes (1), strictly below gives no (0).

compound="CC(C)(C)C(=O)OCOP(=O)(CO[C@@H]1C[C@H](n2cnc3c(N)ncnc32)C=C1F)OCOC(=O)C(C)(C)C [(−)‐9]" target_under_test=HIV‐1‐56252‐1 class_name="yes (1)"

// query For this compound, is measured pEC50 6 or higher? Nc1ncnc2c1ncn2[C@H]1C=C(F)[C@@H](OCP(=O)(O)O)C1 (racemic) [(±)‐1]
// result no (0)

// query Textbook exercise: given the entry C[C@H](Cn1cnc2c(N)ncnc21)OCP(=O)(O)O [(R)‐PMPA, reference compound] , state whether its pEC50 is greater than or equal to 6.
// result no (0)
